The measured values listed here are drawn from PubChem BioAssay (NCI).

# Tested on: HOP-92 NSCLC
# assay: NCI-60 one-dose screen, 48 h
# study conditions: 10 µM unless noted
The panel holds about 83,000 compounds, 20% with a hit somewhere; the sample as a whole holds those more often. The source made the active and inactive calls. Rule for the calls: active = growth percent below 10; inactive = the rest.
Respond only with the outcome that fits, drawn from active, inactive

CN1CCN(Cc2ccc(NC(=O)c3cncc(C#Cc4cnc5cccnn45)c3)cc2C(F)(F)F)CC1    active

**Q:** Any idea what this test logged for "C=C(CN1CC=CCC1)[C@@H]1CC[C@]2(C(=O)OC)CC[C@]3(C)[C@H](CC[C@@H]4[C@@]5(C)CC[C@H](OC(C)=O)C(C)(C)[C@@H]5CC[C@]43C)[C@@H]12" ?
**A:** inactive

**Q:** Another: O=C(O)C1[S][Sb]([CH](C(=O)O)[CH](C(=O)O)[Sb]2[S]C(C(=O)O)C(C(=O)O)[S]2)[S]C1C(=O)O (stereo not drawn)
**A:** inactive

**Q:** Another: COc1cc(NC(C)CCCN)c2ncccc2c1Sc1ccc(Cl)cc1 (stereo not drawn)
**A:** inactive

**Q:** Another: "O=C(OCc1ccc2c(Br)cc(Br)c(O)c2n1)c1cc2ccccc2[nH]1"
**A:** active

**Q:** Another: "C/C(CC(=O)NNc1ccc([N+](=O)[O-])cc1)=N\Nc1ccc([N+](=O)[O-])cc1"
**A:** inactive

**Q:** Another: "O=[N+]([O-])c1ccccc1CN1CCCCC1"
**A:** inactive

**Q:** Another: "CC[C@H](Nc1nc(N)nc(C2CC2)c1C#N)c1nc2cccc(NCc3ccc(C(=O)NO)cc3)c2c(=O)n1-c1ccccc1"
**A:** active

###

# Test system: CAKI-1 renal
# assay: NCI-60 one-dose screen, 48 h (100 = growth as untreated, 0 = no growth, -100 = all killed)
# study conditions: 10 µM unless noted
The panel holds about 83,000 compounds, 20% with a hit somewhere; the sample as a whole holds those more often. Calls of active or inactive are those of the source. The calls were made as follows: active = growth percent below 10; inactive = the rest.
measured quantity: growth

# example entries with known answers
Fc1ccc(-c2ccnc3nc(-c4ccncc4)nn23)cc1    92.1% (inactive)
CN=C1C=C/C(=N/N=c2/ccn(O)cc2C)C=C1C    93.9% (inactive)
CCCCn1c(C)nc2cc(Nc3nc(Cl)nc4nc[nH]c34)ccc21    76.1% (inactive)
O=c1c2sc3ccccc3c2nnn1-c1ccc(F)c(Cl)c1    35.6% (inactive)
Nc1c(C(=O)Nc2cccc(Cl)c2)sc2ncc(Br)cc12    90.6% (inactive)
CCN(CC)CCCC(C)Nc1cnc(C(=O)Nc2ccc(Cl)c3cccnc23)cn1 (stereo not given)    23.1% (inactive)

With those in mind, consider the next molecule.
**Q:** Entry CCN(CC)CCCC(C)Nc1cnc(C(=O)Nc2cccc3ccc(OC)nc23)cn1 (stereo not given) has what growth?
**A:** 94.7% (inactive)

###

# Test system: NCI-H460 lung
# assay: NCI-60 one-dose screen, 48 h
# study conditions: 10 µM unless noted
About 83,000 compounds went through this panel and 20% of them were active in at least one assay; those are over-represented in the sample as a whole. Active and inactive are the calls of the source. Rule for the calls: active = growth percent below 10; inactive = the rest.
Respond only with the outcome that fits, drawn from YES (active), NO (inactive)

Observe how each entry below is paired with its result.
Nc1ccc(C(OC(=O)c2cc3ccccc3c(Cc3c(O)c(C(=O)OC(c4ccc(N)cc4)(c4ccc(N)cc4)c4ccc(N)cc4)cc4ccccc34)c2O)(c2ccc(N)cc2)c2ccc(N)cc2)cc1    YES
CC(=O)c1ccc(-n2c(-c3cc(-c4ccsc4)n[nH]3)n[nH]c2=S)cc1    NO

Pending compound:
**Q:** Any idea what this test logged for "O=C(Nc1cnc(C(F)(F)F)cn1)c1cc(Cl)ccc1O" ?
**A:** YES
